Listing of entries alongside the reported peptide exchange yield.
tgt: T1, HLA-A*02:01 (human)
T1 construct: monomers captured on streptavidin plates; also called MHC class I
test.details: UV peptide exchange ELISA
observable: peptide exchange yield

{"binder": "ILLDVKTRL", "result": "≥ 75%"}
{"binder": "VLLDVSAGQLLM", "result": "≥ 75%"}
{"binder": "LLADLLHNV", "result": "50 to 75%"}
{"binder": "ALLDQTKTLAESAL", "result": "50 to 75%"}
{"binder": "FLWNGEDSALL", "result": "50 to 75%"}
{"binder": "AILPQLFMV", "result": "≥ 75%"}
{"binder": "YLQDVVEQA", "result": "50 to 75%"}
{"binder": "FLYDNLVESL", "result": "20 to 50%"}
